# Tested on: NOMO1
# PROTOCOL TEXT: AUC of viability dose-response curve (% viability x log10 dose units); higher = less sensitive
# CONDITIONS: HPLM + 10% dialyzed FBS; 48 h
READOUT KIND: AUC of viability dose-response curve

{"STRUCTURE STRING": "C=CC[C@@H]1/C=C(\\C)C[C@H](C)C[C@H](OC)[C@H]2O[C@@](O)(C(=O)C(=O)N3CCCC[C@H]3C(=O)O[C@H](/C(C)=C/[C@@H]3CC[C@@H](O)[C@H](OC)C3)[C@H](C)[C@@H](O)CC1=O)[C@H](C)C[C@@H]2OC", "READOUT KIND": "AUC of viability dose-response curve", "RESULT NUMBER": 412}
{"STRUCTURE STRING": "CN1C[C@H]2c3ccccc3Oc3ccc(Cl)cc3[C@@H]2C1", "READOUT KIND": "AUC of viability dose-response curve", "RESULT NUMBER": 440}
{"STRUCTURE STRING": "C=C(C)[C@H]1Cc2c(ccc3c2O[C@@H]2COc4cc(OC)c(OC)cc4[C@@H]2C3=O)O1", "READOUT KIND": "AUC of viability dose-response curve", "RESULT NUMBER": 389}

###

# System: NOMO1
# PROTOCOL TEXT: cell viability relative to DMSO control; higher = less cytotoxic
# CONDITIONS: RPMI 5 mM glucose + 10% FBS; 48 h; 0.00702 µM
Measured cell viability, listed per entry.

{"STRUCTURE STRING": "NC/1=N/C2=C([NH]C=N2)C(=S)N1", "cell viability, %": 123}
{"STRUCTURE STRING": "O=C(Nc1c(Cl)cncc1Cl)c1ccc(OC(F)F)c(OCC2CC2)c1", "cell viability, %": 101}
{"STRUCTURE STRING": "CN(C)[C@H]\\1[C@@H]2C[C@H]3C(=C(O)\\[C@]2(O)C(=O)\\C(=C1O)C(N)=O)/C(=O)C4=C(O)C=CC=C4[C@@]3(C)O", "cell viability, %": 118}
{"STRUCTURE STRING": "CC(C)=CC[C@@H](O)C/1=C/C(=O)C2=C(O)C=CC(=C2C1=O)O", "cell viability, %": 102}
{"STRUCTURE STRING": "C#C[C@]1(O)CC[C@H]2[C@@H]3CCc4cc(O)ccc4[C@H]3CC[C@@]21C", "cell viability, %": 99.9}
{"STRUCTURE STRING": "CC(C)C[C@@H](C=O)NC(=O)[C@H](CC(C)C)NC(=O)[C@H](CC(C)C)NC(=O)OCc1ccccc1", "cell viability, %": 130}
{"STRUCTURE STRING": "CCOC(=O)C/1=C(O)/C(=O)N(CC2=CC=CC=C2)C1", "cell viability, %": 98.3}
{"STRUCTURE STRING": "Cc1cn(-c2cc(NC(=O)c3ccc(C)c(Nc4nccc(-c5cccnc5)n4)c3)cc(C(F)(F)F)c2)cn1", "cell viability, %": 115}
{"STRUCTURE STRING": "CCC[C@H]1C[C@H](C(=O)N[C@@H]([C@@H]2O[C@@H](SC)[C@@H](O)[C@@H](O)[C@H]2O)[C@H](C)Cl)N(C)C1", "cell viability, %": 108}
